// endpoint IC50 / system ALK5 (Homo sapiens (Human))
readoutKind: IC50 (nM)

Cc1cccc(-c2cncn2-c2ccc3ncc(C(N)=O)n3c2)n1 [Compound 9]
136
Cc1cccc(-c2nccn2-c2ccc3ncc(C(N)=O)n3c2)n1 [Compound 8]
7
Cc1cccc(-c2cc3ccccc3n2-c2ccc3ncc(C(N)=O)n3c2)n1 [Compound 25]
14

[I] Cc1cccc(-c2ccsc2-c2ccc3ncc(C(N)=O)n3c2)n1 [Compound 17]
[II] Cc1csc(-c2ncccc2-c2ccc3ncc(C(N)=O)n3c2)n1 [Compound 23]
[III] Cc1cccc(-c2cccn2-c2ccc3ncc(C(N)=O)n3c2)n1 [Compound 1]
Exercise: Sequence the entries by IC50, beginning with the highest number. # the answer lists labels in the order requested
Solution: II, III, I
(II: 21 nM, III: 13 nM, I: 5.2 nM)
